Recorded values, source PubChem BioAssay (NCI).

Test system: UACC-257 melanoma
Test: NCI tumour cell line growth inhibition, 48 h; in the data active means GI50 below about 0.43 µM; inactive means the rest
Possible outcomes: active, inactive

[[record]]
compound = "CN(C)C/C=C/C(=O)Nc1ccc(C(=O)N2CCC[C@@H](Nc3ncc(Cl)c(-c4c[nH]c5ccccc45)n3)C2)cc1"
discretelabel = "active"

[[record]]
compound = "COc1ccc2c(c1)nc1n2C(c2ccc(F)cc2)SC1 (stereo not drawn)"
discretelabel = "inactive"

[[record]]
compound = "CCN(CC)CCOc1ccc(/C=C2\\CC3C4CC=C5C[C@@H](OC(C)=O)CC[C@]5(C)C4CC[C@]3(C)C2=O)cc1OC (stereo partly drawn)"
discretelabel = "inactive"

[[record]]
compound = "Oc1[nH]c2ccccc2c1/C=c1/cc2c(c(-c3ccc(C(F)(F)F)cc3)n1)=Nc1ccccc1-2"
discretelabel = "inactive"

[[record]]
compound = "O=C(Nc1cc(S(=O)(=O)c2ccc(Cl)cc2)ccc1Cl)c1cc(I)cc(I)c1O"
discretelabel = "inactive"

[[record]]
compound = "O=C(Nc1ccc(Cl)cc1)Nc1ccccc1CNc1nc(Nc2ccc(OCCN3CCCC3)cc2)ncc1Cl"
discretelabel = "inactive"

[[record]]
compound = "CC[C@H](C)[C@H](NC(=O)[C@H]1CCCCN1C)C(=O)N(C)[C@H](C[C@@H](OC(C)=O)c1nc(C(=O)N[C@@H](Cc2ccccc2)C[C@H](C)C(=O)OC)cs1)C(C)C"
discretelabel = "inactive"

[[record]]
compound = "COc1ccc(C(=O)C[C@]2(O)C(=O)Nc3c(Cl)ccc(Cl)c32)cc1"
discretelabel = "inactive"

